test: NCI Yeast Anticancer Drug Screen. Data for the cln2 rad14 strain (AID 165);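 further: 0% = growth equal to vehicle treated cultures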; conditions: S. cerevisiae cln2 rad14 strain, at 50.0 µM
About 79,000 compounds went through this panel and 15% of them were active in at least one assay; those are over-represented in the sample as a whole. The source made the active and inactive calls. No stated cut-off is given here; in the data, active means growth inhibition above about 70%; inactive means the rest.
Your answer must be one of the following: active, inactive

Below, 3 compounds whose answers are already recorded.
COC(=O)C1(CC(=O)C2CC2)NC(=S)NC(=O)C1C#N (stereo not given) :: inactive
O=C(NNC(=O)C(F)(F)F)C(F)(F)F :: inactive
Cn1c2c(c3ccccc31)CCN=C2C1CCCOC1=O (stereo not given) :: inactive

What call does the record list for CC1CCc2nc(N)nc(CC3CC(=O)NC(=O)C3)c2C1 (stereo not given) ?
inactive

Any idea what this test logged for CCOC(=O)C12CCCCC1=CC1(CC2)SCCS1 (stereo not given) ?
inactive

// outcome(item) with item = O=C(O)c1ccc([N+](=O)[O-])cc1N(c1ccccc1)c1ccccc1
inactive

Recorded test call requested for COC(=O)C(C)(N)Cc1ccc(O)c(C)c1 (stereo not given)
inactive

Dear all, I need the recorded test outcome for NNCCSC1CCCCC1 , thank you.
inactive

So what was the verdict on COC(=O)c1nnn(-c2ccccc2C(C)C)c1C(=O)c1ccccc1 in this test?
inactive

Name the outcome recorded for CC1OC(OC2C(Oc3cc(O)c4c(c3)O[C@H](c3ccc(O)cc3)CC4=O)OC(CO)C(O)C2O)C(O)C(O)C1O (stereo not given in full) in the assay.
inactive

###

assay: NCI Yeast Anticancer Drug Screen. Data for the sgs1 mgt1 strain (AID 161);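 further: 0% = growth of cultures given vehicle only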; conditions: S. cerevisiae sgs1 mgt1 strain, at 50.0 µM, stronger effect = higher value
This is part of a sample that, as a whole, favours compounds with a hit. Of some 79,000 tested, about 15% had one in any assay.
Metric Name: growth inhibition (%)
Give the quantity in %, number only.

Consider the reported growth inhibition for these compounds:
CCCCCCCCCCCC(=O)N/N=C(\c1ccccc1)c1ccc(Cl)cc1 :: 93.5
CCN(CC)CCCS/C(N)=N\S(=O)(=O)c1ccc(N)cc1 :: -20.2
O=C(Nc1ccc(Cl)cc1)C(=O)C1=C(O)c2ccccc2OC1 :: -12.3
CC(=O)OCC1OC(n2c(C)c(N=Nc3ccc(Cl)cc3)c(C)c(C#N)c2=S)C(OC(C)=O)C(OC(C)=O)C1OC(C)=O (stereo unspecified) :: 25.1

Tell me growth inhibition reported for COc1nc2cc(C)c(C)cc2n1C1OC(CO)C(O)C1O (stereo unspecified)
6.95

Return value of growth inhibition for input CCOC(=O)c1ccc(NC(=O)c2cnccn2)cc1 , no commentary.
-17.7

Dear colleague, please send me the reported growth inhibition for CCOC(CS(=O)(=O)CC(N)=O)OCC when you can.
-3.75

Give the reported value of growth inhibition for this record: CCOC(=O)c1nc2ccc(C(F)(F)F)cc2nc1NCc1ccc(OC)cc1
-1.15

State its growth inhibition for this compound: O=C(O)c1cccnc1-c1ccccc1
-9.85

Determine from records and report growth inhibition for N#Cc1ccccc1/C=N/O
-8.75

Supply growth inhibition value. Item: COc1ccc2nc3cc(Cl)ccc3c(C=O)c2c1
5.75

Give a short answer stating reported growth inhibition for COc1cccc(NC(=O)CC(=O)N2N=C(n3ccc4ccccc43)CC2c2ccccc2)c1 (stereo unspecified) .
-6

Return value of growth inhibition for input Cc1cc2ccccc2c[n+]1CC(O)CBr (stereo unspecified) , no commentary.
11.3

Recall and state the measured growth inhibition for CCOC1C(=O)C=COC1C(C)C (stereo unspecified) .
-2.75

Using the record for N#Cc1nnc2cc(-c3ccccc3)nn2c1-c1ccco1 , state its measured growth inhibition.
16.3

Sourced from PubChem BioAssay (NCI)
